tested on: BT-549; assay: NCI tumour cell line growth inhibition, 48 h
Active and inactive are the calls of the source. No stated cut-off is given here; in the data, active = GI50 up to about 1.1 µM and inactive = higher.
Measured Endpoint: GI50

Here are 4 compounds together with their reported answers.
Quick one: GI50 for Cc1ccc(SC(=O)N2C(=S)N=C(NC3CCCCC3)C23CCCCC3)cc1 ?
57.5 µM (inactive)

Quick one: GI50 for COc1ccc(CNC(=O)NCn2cc(-c3ccccc3)nn2)cc1 ?
> 100 µM (inactive)

Quick one: GI50 for N#Cc1c(Nc2ccccc2)[n+]([O-])c2ccc(Cl)cc2[n+]1[O-] ?
3.44 µM (inactive)

Quick one: GI50 for Nc1c(Cl)ncnc1N[C@@H]1C[C@H]1CO ?
> 100 µM (inactive)

Now let's try a different one.
Quick one: GI50 for CC1=C(C(=O)Nc2ccccc2C)C(c2ccc(C3C(C(=O)Nc4ccccc4C)=C(C)NC(C)=C3C(=O)Nc3ccccc3C)cc2)C(C(=O)Nc2ccccc2C)=C(C)N1 ?
2.75 µM (inactive)

* * *

system: SNB-19; test: NCI tumour cell line growth inhibition, 48 h
Active and inactive are the calls of the source. Cut-off read from the data, not from the text of the source: active = GI50 up to about 1.1 µM and inactive = higher.
Measured Endpoint: GI50

Test system SNB-19; read-out GI50; what value for COc1ccc(NC(S)=Nc2cccc(C)n2)cc1 ?
> 100 µM (inactive)

Test system SNB-19; read-out GI50; what value for [C-]#[N+][C@@H]1C2[C@H](CC[C@@]1(C)O)C(=C)CC[C@@H]2[C@@]1(C)CC[C@H](Cl)C(C)(C)O1 (stereo not given in full) ?
7.1 µM (inactive)

Test system SNB-19; read-out GI50; what value for CN1C(=O)C(=Cc2ccc(Br)cc2)C(=O)N(C)C1=O ?
> 100 µM (inactive)

More entries:
Test system SNB-19; read-out GI50; what value for SC[C@@H]1COC[C@H](CS)S1 ?
> 100 µM (inactive)

Test system SNB-19; read-out GI50; what value for CC(C)C1N(C)c2ccc(Cl)cc2[C@H]2c3ccccc3CCN12 (stereo not given in full) ?
> 100 µM (inactive)

* * *

system: LOX IMVI; assay: NCI tumour cell line growth inhibition, 48 h
Activity calls are given as the source filed them. Rule as the data show it: active = GI50 up to about 1.1 µM and inactive = higher.
Measured Endpoint: GI50

Quick one: GI50 for C[C@H]1C[C@H](C)c2ccccc2N(C)/C1=N\c1ccccc1 ?
13.7 µM (inactive)

* * *

tested on: DLD-1; test: NCI tumour cell line growth inhibition, 48 h
Calls of active or inactive are those of the source. Cut-off read from the data, not from the text of the source: active = GI50 up to about 1.1 µM and inactive = higher.
Measured Endpoint: GI50

Here are 9 compounds together with their reported answers.
Test system DLD-1; read-out GI50; what value for CN1C(=O)C2C3C=C4c5ccccc5N(c5ccccc5)C4(C2C1=O)[C@H]1C(=O)N(C)C(=O)[C@@H]31 (stereo not given in full) ?
> 100 µM (inactive)

Test system DLD-1; read-out GI50; what value for COc1ccc(C[C@H](N)C(=O)N2C[C@@H](CO)C[C@@H](n3ccc(=O)[nH]c3=O)C2)cc1 ?
> 100 µM (inactive)

Test system DLD-1; read-out GI50; what value for O=C(O)CNc1c2ccccc2[n+]([O-])c2ccccc12 ?
87.3 µM (inactive)

Test system DLD-1; read-out GI50; what value for Cc1c(C(=O)C/C(=N/NC(=O)CC#N)C(N)=O)[n+]([O-])c2ccccc2[n+]1[O-] ?
29.1 µM (inactive)

Test system DLD-1; read-out GI50; what value for CC(C)CCCC(C)[C@H]1CCC2[C@@H]3CCC4Nc5nocc5C[C@]4(C)C3CC[C@@]21C (stereo not given in full) ?
19.7 µM (inactive)

Test system DLD-1; read-out GI50; what value for CC(=O)N(C)C=C1C(=O)N(C)C(=O)N(C)C1=O ?
> 100 µM (inactive)

Test system DLD-1; read-out GI50; what value for Nc1ccn(CCOC(=O)c2ccccc2)c(=O)n1 ?
> 100 µM (inactive)

Test system DLD-1; read-out GI50; what value for COc1ccc(OC)c(CC(C)N)c1 (stereo not given) ?
> 100 µM (inactive)

Test system DLD-1; read-out GI50; what value for O=C(Nc1ccccc1C(=O)O)C(=O)C(C(=O)c1ccccc1-c1ccccc1)C1OC(=O)c2ccccc21 (stereo not given) ?
23.5 µM (inactive)

Now let's try a different one.
Test system DLD-1; read-out GI50; what value for COC(=O)CCC(NC(=S)N/N=C(\C)c1cnccn1)C(=O)OC (stereo not given) ?
48 µM (inactive)
